molecular target: CXCR3 (Homo sapiens, UniProt P49682); construct: expressed in transfected cells; host or cells: HEK293 / HEK293T cells, stably transfected; membrane preparations; test: [35S]GTPγS incorporation assay; format: biochemical; details: % of CXCL11 mediated effect; membrane preparations of HEK293T stably expressing CXCR3
Sequence (P49682 whole entry): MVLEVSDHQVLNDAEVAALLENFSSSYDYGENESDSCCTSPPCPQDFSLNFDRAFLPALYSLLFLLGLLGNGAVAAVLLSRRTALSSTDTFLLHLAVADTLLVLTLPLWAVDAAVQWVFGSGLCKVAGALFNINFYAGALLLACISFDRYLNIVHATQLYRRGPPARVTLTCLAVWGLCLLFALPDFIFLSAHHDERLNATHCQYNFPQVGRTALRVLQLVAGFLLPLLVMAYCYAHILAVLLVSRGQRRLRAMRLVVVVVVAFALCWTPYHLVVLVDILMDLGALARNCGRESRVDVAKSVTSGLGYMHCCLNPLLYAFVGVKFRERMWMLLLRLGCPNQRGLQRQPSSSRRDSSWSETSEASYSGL
measured.property: CXCR3 Efficacy (%) ± SEM

Below, each entry is followed by its recorded CXCR3 Efficacy (%) ± SEM result.
CC(C)(C)OC(=O)N[C@@H](CCCCNC(=O)[C@@H]1Cc2ccccc2CN1C(=O)CCC(=O)c1ccco1)C(=O)NCC(c1ccccc1)c1ccccc1 No effect
N[C@@H](CCCCNC(=O)[C@@H]1Cc2ccccc2CN1C(=O)CCCC(=O)c1ccccc1)C(=O)NCC(c1ccccc1)c1ccccc1.O=C(O)C(F)(F)F No effect
CC(C)(C)OC(=O)N[C@H](CCCCNC(=O)[C@@H]1Cc2ccccc2CN1C(=O)CCC(=O)c1ccccc1)C(=O)NCC(c1ccccc1)c1ccccc1 No effect
CC(C)(C)OC(=O)N[C@@H](CCCCNC(=O)[C@@H]1Cc2ccccc2CN1C(=O)CCC(=O)c1cccs1)C(=O)NCC(c1ccccc1)c1ccccc1 No effect
CC(C)(C)OC(=O)N[C@@H](CCCCNC(=O)[C@@H]1Cc2ccccc2CN1C(=O)CCC(=O)N1CCCCC1)C(=O)NCC(c1ccccc1)c1ccccc1 No effect

input: Provide one value: measured CXCR3 Efficacy (%) ± SEM of CC(C)(C)OC(=O)N[C@@H](CCCCNC(=O)[C@@H]1Cc2ccccc2CN1)C(=O)NCC(c1ccccc1)c1ccccc1
output: 34±8%

input: Provide one value: measured CXCR3 Efficacy (%) ± SEM of COc1ccc(C(=O)CCC(=O)N2Cc3ccccc3C[C@H]2C(=O)NCCCC[C@H](NC(=O)OC(C)(C)C)C(=O)NCC(c2ccccc2)c2ccccc2)cc1OC
output: 18±1%

input: Provide one value: measured CXCR3 Efficacy (%) ± SEM of CC(C)(C)OC(=O)N[C@@H](CCCCNC(=O)[C@@H]1Cc2ccccc2CN1C(=O)CCC(=O)O)C(=O)NCC(c1ccccc1)c1ccccc1
output: No effect
